Value source: patent US20130184313A1

target: α-Bungarotoxin-insensitive (α4β2) neuronal nicotinic receptor (Rattus norvegicus, UniProt P09483+P12390); assay: biochemical; details: read-out: percent inhibition of the control radioligand specific binding
Sequence (P12390 25-500, one chain of several): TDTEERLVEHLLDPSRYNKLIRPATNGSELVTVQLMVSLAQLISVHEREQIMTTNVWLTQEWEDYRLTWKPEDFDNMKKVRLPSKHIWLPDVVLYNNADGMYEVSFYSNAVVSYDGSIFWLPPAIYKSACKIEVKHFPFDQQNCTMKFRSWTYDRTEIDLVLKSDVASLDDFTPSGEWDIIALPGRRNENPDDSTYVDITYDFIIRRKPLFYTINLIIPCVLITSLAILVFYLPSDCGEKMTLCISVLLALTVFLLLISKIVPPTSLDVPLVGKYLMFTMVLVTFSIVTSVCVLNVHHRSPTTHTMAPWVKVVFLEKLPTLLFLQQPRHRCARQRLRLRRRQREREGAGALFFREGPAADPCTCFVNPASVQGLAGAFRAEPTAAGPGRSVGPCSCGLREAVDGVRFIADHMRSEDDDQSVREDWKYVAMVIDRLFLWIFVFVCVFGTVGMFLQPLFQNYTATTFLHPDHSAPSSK
Counter-ions that a name gives are not always drawn.
Quick list: inhibition at 0.1 µM per entry.

Here is how some compounds turned out for inhibition at 0.1 µM.
c1ccc(OC[C@H]2C[C@@H]2c2cncc(OC[C@@H]3CCN3)c2)cc1 | 59 to 100%
OCCCc1ccc(-c2cncc(OC[C@@H]3CCN3)c2)cc1 [Example 15d] | 59 to 100%
Oc1ccc(OCCC2CCN(c3cncc(OC[C@@H]4CCCN4)c3)CC2)cc1 | 8 to 28%
CN1CCC[C@H]1COc1cncc(-c2cc(CCCOc3ccccc3)no2)c1 [Example 41, Hydrochloride] | 59 to 100%
c1ccc(COCCC2CCN(c3cncc(OC[C@@H]4CCCN4)c3)CC2)cc1 | 59 to 100%
OCC[C@H]1C[C@@H]1c1cncc(OC[C@@H]2CCN2)c1 | 59 to 100%
c1ccc(COCCc2cccc(-c3cncc(OC[C@@H]4CCN4)c3)c2)cc1 | 59 to 100%
c1ncc(N2CC3CC3C2)cc1OC[C@@H]1CCN1 (some centres unmarked) | 59 to 100%
CC(=O)NCCCc1cccc(-c2cncc(OC[C@@H]3CCN3)c2)c1 | 59 to 100%
OCCCc1cccc(-c2cncc(OC[C@H]3CCN3)c2)c1 | 59 to 100%

### Prompt inhibition at 0.1 µM for `OCCc1cccc(-c2cncc(OC[C@@H]3CCN3)c2)c1` ?
### Response 59 to 100%

### Prompt Let us now turn to `OCc1cc(-c2cncc(OC[C@@H]3CCN3)c2)on1`
### Response 59 to 100%

### Prompt Let us now turn to `c1ccc(OCCC2CCN(c3cncc(OC[C@@H]4CCCN4)c3)CC2)cc1`
### Response 8 to 28%

* * *

biological target: α4β4 nicotinic receptor (Rattus norvegicus, UniProt P09483+P12392)
Sequence (P09483 31-630): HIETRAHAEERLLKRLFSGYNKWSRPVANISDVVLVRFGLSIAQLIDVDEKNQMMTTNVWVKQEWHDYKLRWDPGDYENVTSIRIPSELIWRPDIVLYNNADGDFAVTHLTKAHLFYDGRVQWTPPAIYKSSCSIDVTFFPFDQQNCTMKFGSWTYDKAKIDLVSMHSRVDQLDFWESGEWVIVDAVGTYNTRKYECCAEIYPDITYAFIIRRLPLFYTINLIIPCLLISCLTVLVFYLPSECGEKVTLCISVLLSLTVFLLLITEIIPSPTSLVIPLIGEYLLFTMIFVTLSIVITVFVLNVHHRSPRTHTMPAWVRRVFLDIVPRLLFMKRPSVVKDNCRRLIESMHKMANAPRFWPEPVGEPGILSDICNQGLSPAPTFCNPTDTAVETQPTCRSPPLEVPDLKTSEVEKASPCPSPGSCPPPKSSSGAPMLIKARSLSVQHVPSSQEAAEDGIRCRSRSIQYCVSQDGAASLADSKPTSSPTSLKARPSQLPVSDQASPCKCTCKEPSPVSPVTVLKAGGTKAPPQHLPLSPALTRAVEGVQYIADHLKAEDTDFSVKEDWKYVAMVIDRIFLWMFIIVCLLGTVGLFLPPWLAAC
Sequence (P12392 21-495): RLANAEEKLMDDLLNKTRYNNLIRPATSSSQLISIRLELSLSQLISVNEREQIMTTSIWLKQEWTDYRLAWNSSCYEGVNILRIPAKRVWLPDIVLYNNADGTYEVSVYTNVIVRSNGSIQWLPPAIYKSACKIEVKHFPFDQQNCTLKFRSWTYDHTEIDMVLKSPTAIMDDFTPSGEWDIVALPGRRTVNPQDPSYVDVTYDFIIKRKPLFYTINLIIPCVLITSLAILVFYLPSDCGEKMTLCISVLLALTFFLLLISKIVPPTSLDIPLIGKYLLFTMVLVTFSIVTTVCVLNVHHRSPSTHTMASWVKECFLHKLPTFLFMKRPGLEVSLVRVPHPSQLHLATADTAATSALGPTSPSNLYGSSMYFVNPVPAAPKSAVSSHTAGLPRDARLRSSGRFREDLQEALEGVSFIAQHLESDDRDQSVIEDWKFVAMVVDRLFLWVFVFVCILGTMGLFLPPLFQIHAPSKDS
ASSAY_READOUT: Ki (nM)
Provide the reading as a plain figure in nM.

### Prompt Any idea what Ki came out for OCC[C@H]1C[C@@H]1c1cncc(OC[C@@H]2CCN2)c1 [drawing 418] on α4β4 nicotinic receptor (Rattus norvegicus, UniProt P09483+P12392)?
### Response 83

* * *

biological target: α-Bungarotoxin-insensitive (α4β2) neuronal nicotinic receptor (Rattus norvegicus, UniProt P09483+P12390); assay: biochemical; settings: read-out: percent inhibition of the control radioligand specific binding
ASSAY_READOUT: inhibition at 0.1 µM

OCCCc1cccc(-c2cncc(OC[C@@H]3CCN3)c2)c1 [Example 15c] | 59 to 100%
c1ccc(COCCC2CCN(c3cncc(OC[C@H]4CCCN4)c3)CC2)cc1 | 8 to 28%
c1cncc(OC[C@H]2C[C@@H]2c2cncc(OC[C@@H]3CCN3)c2)c1 | 59 to 100%

Lab note: next compound to report on.
### Prompt inhibition at 0.1 µM for `c1ccc(COC[C@H]2C[C@@H]2c2cncc(OC[C@@H]3CCN3)c2)nc1` ?
### Response 59 to 100%
